- experimentalSystem: T1, PCSK9 (proprotein convertase subtilisin/kexin type 9), His-tagged, full-length (human, UniProt Q8NBP7 31-692)
- T1 construct: Captured by the His tag (SPR Methods 1 and 2), amine-coupled (Method 3), or His-tagged in TR-FRET; also called His-PCSK9
- T1 sequence (Q8NBP7 31-692 limits assumed): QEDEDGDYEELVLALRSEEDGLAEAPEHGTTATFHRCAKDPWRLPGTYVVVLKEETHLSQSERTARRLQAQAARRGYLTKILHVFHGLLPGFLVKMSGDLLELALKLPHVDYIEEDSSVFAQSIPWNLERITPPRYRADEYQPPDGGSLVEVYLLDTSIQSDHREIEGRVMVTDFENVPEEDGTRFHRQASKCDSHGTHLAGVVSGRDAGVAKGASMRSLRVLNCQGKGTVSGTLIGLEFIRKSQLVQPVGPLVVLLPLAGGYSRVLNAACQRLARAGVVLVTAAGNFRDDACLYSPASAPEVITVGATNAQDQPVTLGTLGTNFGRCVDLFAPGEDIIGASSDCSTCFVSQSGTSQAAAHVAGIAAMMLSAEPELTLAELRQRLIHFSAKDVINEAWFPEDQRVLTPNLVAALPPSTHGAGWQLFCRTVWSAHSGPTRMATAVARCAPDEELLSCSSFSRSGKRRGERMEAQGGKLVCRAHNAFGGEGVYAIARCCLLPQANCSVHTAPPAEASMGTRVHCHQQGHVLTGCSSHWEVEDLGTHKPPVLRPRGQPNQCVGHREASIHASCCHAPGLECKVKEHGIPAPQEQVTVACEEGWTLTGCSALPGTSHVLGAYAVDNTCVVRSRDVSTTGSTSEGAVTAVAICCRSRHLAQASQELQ
- procedureText: SPR, Method 3 (SensiQ Pioneer FE, target amine-coupled, gradient injection)
pKd: −log10 of the molar value. Bridge positions count the residues as written; N and C are the ends. * marks the point of attachment. 5FAM = O=C1OC2(c3ccc(O)cc3Oc3cc(O)ccc32)c2ccc(C(=O)*)cc21
experimentalReadout: pKd

* Ac-MPWNLVRIGLLR-NH2 [Compound 51] | 4.58
* 5FAM-SGSGCFIPWNLQRIGLLC-NH2 (disulfide 5-18 (inferred), Two Cys, disulfide-cyclized) [Compound 33] | 5.22
* Ac-DLMPWNLVRIGLAR-NH2 [Compound 55] | 4.02
